tested on: mAb3C9; test: optimized chemosynthesized antigen-based dcELISA (mAb3C9 and hapten 6-OVA); conditions: mAb3C9, Hapten 6-OVA
Each entry below lists one item and its recorded LOD (IC10) value.

{"COMPOUND": "COP(=S)(OC)Oc1nc(Cl)c(Cl)cc1Cl [Chlorpyrifos-methyl]", "TARGET": "mAb3C9", "LOD (IC10), µg/mL": 0.0007}
{"COMPOUND": "COP(=S)(OC)SCn1nnc2ccccc2c1=O [Azinphos-methyl]", "TARGET": "mAb3C9", "LOD (IC10), µg/mL": 0.0004}
{"COMPOUND": "CCN(CC)c1nc(C)cc(OP(=S)(OC)OC)n1 [Pirimiphos-methyl]", "TARGET": "mAb3C9", "LOD (IC10), µg/mL": 0.0156}
{"COMPOUND": "COP(=S)(OC)Oc1cc(Cl)c(Br)cc1Cl [Bromophos-methyl]", "TARGET": "mAb3C9", "LOD (IC10), µg/mL": 0.0195}
{"COMPOUND": "COP(=S)(OC)Oc1cc(Cl)c(Cl)cc1Cl [Fenchlorphos]", "TARGET": "mAb3C9", "LOD (IC10), µg/mL": 0.0074}
{"COMPOUND": "CCOP(=S)(OCC)Oc1cc(C)nc(C(C)C)n1 [Diazinon]", "TARGET": "mAb3C9", "LOD (IC10), µg/mL": 0.3917}
{"COMPOUND": "CCOP(=S)(OCC)Oc1cnc2ccccc2n1 [Quinalphos]", "TARGET": "mAb3C9", "LOD (IC10), µg/mL": 0.5123}
{"COMPOUND": "COP(=S)(OC)Oc1ccc(SC)c(C)c1 [Fenthion]", "TARGET": "mAb3C9", "LOD (IC10), µg/mL": 0.003}
{"COMPOUND": "CCOP(=S)(OCC)O/N=C(\\C#N)c1ccccc1 [Phoxim]", "TARGET": "mAb3C9", "LOD (IC10), µg/mL": 0.4354}
{"COMPOUND": "COP(=S)(OC)Oc1ccc(C#N)cc1 [Cyanophos]", "TARGET": "mAb3C9", "LOD (IC10), µg/mL": 0.0006}
{"COMPOUND": "COP(=S)(OC)SCN1C(=O)c2ccccc2C1=O [Phosmet]", "TARGET": "mAb3C9", "LOD (IC10), µg/mL": 0.0003}
{"COMPOUND": "CNC(=O)/C=C(\\C)OP(=O)(OC)OC [Monocrotophos]", "TARGET": "mAb3C9", "LOD (IC10), µg/mL": 0.0432}
